# TARGET OR TEST SYSTEM: T1, mucin domain-deleted Sudan GP (GPdMuc) (Sudan virus (SUDV), UniProt Q7T9D9 33-632)
# T1 construct: also called Sudan GPdMuc; GP(S)dMuc
# ASSAY PROTOCOL: BLI competition on Sudan GPdMuc (upper table); competitor 16F6
RECORDED ENDPOINT: % inhibition of binding (%)

- antibody 315S (antibody, V domains shown) VH: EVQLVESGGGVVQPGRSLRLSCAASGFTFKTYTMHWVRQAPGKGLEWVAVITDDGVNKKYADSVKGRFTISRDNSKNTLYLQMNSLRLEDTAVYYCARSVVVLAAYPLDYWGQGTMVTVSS VL: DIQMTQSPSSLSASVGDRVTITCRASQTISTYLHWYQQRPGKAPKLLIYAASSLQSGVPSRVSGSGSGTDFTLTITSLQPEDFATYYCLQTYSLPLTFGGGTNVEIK: 17.9
- antibody 528S (antibody, V domains shown) VH: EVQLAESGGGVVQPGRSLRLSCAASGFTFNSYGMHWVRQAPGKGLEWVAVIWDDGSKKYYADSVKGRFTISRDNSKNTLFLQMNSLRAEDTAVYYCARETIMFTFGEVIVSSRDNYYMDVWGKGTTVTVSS VL: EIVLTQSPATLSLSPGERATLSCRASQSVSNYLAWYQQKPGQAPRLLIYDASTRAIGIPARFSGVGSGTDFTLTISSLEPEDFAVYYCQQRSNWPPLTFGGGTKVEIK: 13.2
- antibody 377S (antibody, V domains shown) VH: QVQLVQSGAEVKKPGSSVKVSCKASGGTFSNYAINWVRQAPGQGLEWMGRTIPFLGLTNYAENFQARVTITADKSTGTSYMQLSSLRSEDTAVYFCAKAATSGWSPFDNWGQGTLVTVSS VL: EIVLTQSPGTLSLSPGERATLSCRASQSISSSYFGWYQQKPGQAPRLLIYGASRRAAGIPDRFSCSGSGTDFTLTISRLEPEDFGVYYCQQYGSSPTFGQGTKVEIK: 9.63
- antibody 338S (antibody, V domains shown) VH: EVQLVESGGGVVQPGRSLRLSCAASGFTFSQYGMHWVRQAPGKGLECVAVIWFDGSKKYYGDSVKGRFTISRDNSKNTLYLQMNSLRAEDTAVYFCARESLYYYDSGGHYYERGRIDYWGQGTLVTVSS VL: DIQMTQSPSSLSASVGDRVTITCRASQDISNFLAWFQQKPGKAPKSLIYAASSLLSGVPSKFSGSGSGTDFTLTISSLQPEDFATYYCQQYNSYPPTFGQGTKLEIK: 3.74
